Target: GHSR-1a (HEK293/GHSR1a cell line) (Homo sapiens, UniProt Q92847)
Construct: expressed in transfected cells; host or cells: HEK293/GHSR1a cell line
Sequence (Q92847 whole entry): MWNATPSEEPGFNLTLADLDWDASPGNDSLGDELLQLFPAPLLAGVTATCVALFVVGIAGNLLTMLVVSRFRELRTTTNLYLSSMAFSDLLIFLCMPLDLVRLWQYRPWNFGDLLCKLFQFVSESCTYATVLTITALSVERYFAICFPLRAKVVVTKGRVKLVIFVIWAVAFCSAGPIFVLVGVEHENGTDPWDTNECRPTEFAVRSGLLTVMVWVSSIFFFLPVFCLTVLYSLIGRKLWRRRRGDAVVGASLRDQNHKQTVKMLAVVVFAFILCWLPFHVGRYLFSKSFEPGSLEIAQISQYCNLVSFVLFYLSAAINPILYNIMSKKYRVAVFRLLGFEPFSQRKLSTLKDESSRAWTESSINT
Assay: Ghrelin antagonist potency (IC50) with calcium FLIPR assay, ghrelin 10 nM
Type: cell-based
Settings: HEK293/GHSR1a, ghrelin 10 nM, read-out: Activity IC50 (ghrelin antagonist potency)
So basically: is IC50 under 0.02 µM? Then Met. Not under? Then Not met.

INSERT INTO measurements (compound, cat) VALUES
  ('CC(NC(=O)Nc1ccc(S(=O)(=O)Cc2cc3c(s2)CNC3)cc1)c1ccccc1 (centres unmarked)', 'Not met'),
  ('C[C@@H](NC(=O)Nc1ccc(S(=O)(=O)Cc2ccc3c(c2)CN(C)C3(C)C)cc1)c1ccccc1', 'Not met'),
  ('CC(NC(=O)Nc1ccc(S(=O)(=O)N2CC3CNCC3C2)cc1)c1ccccc1 (centres unmarked)', 'Not met'),
  ('CC(NC(=O)Nc1ccc(S(=O)(=O)Cc2ccc3c(c2)CNC3)cc1)c1cccc(F)c1 (centres unmarked)', 'Not met'),
  ('C[C@H](NC(=O)Nc1ccc(S(=O)(=O)Cc2ccc(CN3CCC(CO)C3)cc2)cc1)c1ccccc1 (some centres unmarked)', 'Not met'),
  ('CC(NC(=O)Nc1ccc(S(=O)(=O)Cc2ccc3c(c2)CN(C)C3)cc1)c1cncnc1 (centres unmarked)', 'Not met'),
  ('CCN(CC)CCCS(=O)(=O)c1ccc(NC(=O)NC(C)c2cccc(Cl)c2Cl)cc1 (centres unmarked)', 'Not met'),
  ('CCc1ccc(Cl)c(C(C)NC(=O)Nc2ccc(S(=O)(=O)Cc3ccc4c(c3)CNC4)cc2)c1 (centres unmarked)', 'Not met'),
  ('CC(NC(=O)Nc1ccc(S(=O)(=O)CC2CCCN(CC3CCCO3)C2)cc1)c1cccc(Cl)c1Cl (centres unmarked)', 'Not met'),
  ('COc1cc(S(=O)(=O)Cc2ccc3c(c2)CC(C)N(C)C3)ccc1NC(=O)NC(C)c1cccc(Cl)c1Cl (centres unmarked)', 'Met'),
  ('COc1c(CS(=O)(=O)c2ccc(NC(=O)NC(C)c3cccc(Cl)c3Cl)cc2)ccc2c1CCN(C)C2 (centres unmarked)', 'Met'),
  ('Cc1cc(S(=O)(=O)Cc2ccc3c(c2)CN(C)C3)ccc1NC(=O)NC(C)c1ccccc1 (centres unmarked)', 'Not met'),
  ('C[C@@H](NC(=O)Nc1ccc(S(=O)(=O)Cc2ccc3c(c2)CCN(C)C3)cc1)c1cccc(Cl)c1Cl', 'Met'),
  ('C[C@@H](NC(=O)Nc1ccc(S(=O)(=O)Cc2csc3c2CN(C)C3)cc1)c1ccccc1', 'Not met'),
  ('CC(NC(=O)Nc1ccc(S(=O)(=O)Cc2ccc3c(c2)CN(C)C3)cc1)c1c(F)cccc1F (centres unmarked)', 'Not met'),
  ('COc1cc(S(=O)(=O)Cc2ccc3c(c2)CNC3)ccc1NC(=O)NC(C)c1c(F)cccc1F (centres unmarked)', 'Met'),
  ('COc1ccc(C(C)NC(=O)Nc2ccc(S(=O)(=O)Cc3ccc4c(c3)CNC4)cc2)cc1OC (centres unmarked)', 'Not met');
